target.under.test: Geranylgeranyl transferase type I (Homo sapiens, UniProt P49354+P53609)
procedure.details: In vitro inhibitory activity to reduce the human geranylgeranyl transferase type I (GGPTase-1)-catalyzed incorporation of 3H GGPP (100 nM) into K-Ras-derived peptide

# smiles.string, censor.symbol, IC50 [nM]
rows = [
    ("C[C@H]1NCc2cncn2Cc2ccc(C#N)c(c2)Oc2ccc3cccc(c3c2)NC1=O", "=", 313),
    ("CN1CC(=O)Nc2cccc3ccc(cc23)Oc2cc(ccc2C#N)Cn2cncc2C1", "=", 2070),
    ("N#Cc1ccc2cc1Oc1ccc3cccc(c3c1)C(=O)NCCNC(=O)Cc1cncn1C2", "=", 250),
    ("N#Cc1ccc2cc1Oc1ccc3cccc(c3c1)NC(=O)CNCc1cncn1C2", "=", 675),
    ("N#Cc1ccc2cc1Oc1ccc3cccc(c3c1)NC(=O)[C@@H](Cc1ccccc1)NC(=O)Cc1cncn1C2", "=", 29),
    ("CN1CC(=O)N(C)c2cccc3ccc(cc23)Oc2cc(ccc2C#N)Cn2cncc2C1", "=", 12800),
    ("N#Cc1ccc2cc1Oc1ccc3cccc(c3c1)NC(=O)[C@@H](Cc1cccnc1)NCc1cncn1C2", "=", 147),
    ("N#Cc1ccc2cc1Oc1ccc3cccc(c3c1)C(=O)NCCCNCc1cncn1C2", "=", 890),
    ("C[C@@H]1C(=O)N(C)c2cccc3ccc(cc23)Oc2cc(ccc2C#N)Cn2cncc2CN1C", "=", 6760),
    ("N#Cc1ccc2cc1Oc1ccc3cccc(c3c1)NC(=O)CNC(=O)Cc1cncn1C2", "=", 150),
    ("CN1Cc2cncn2Cc2ccc(C#N)c(c2)Oc2ccc3cccc(c3c2)NC(=O)[C@H]1Cc1ccccc1", "=", 350),
    ("C[C@H]1NC(=O)Cc2cncn2Cc2ccc(C#N)c(c2)Oc2ccc3cccc(c3c2)NC1=O", "=", 50),
    ("N#Cc1ccc2cc1Oc1ccc3cccc(c3c1)NC(=O)[C@@H](Cc1ccccc1)N(Cc1ccccc1)Cc1cncn1C2", ">", 20000),
    ("C[C@@H]1C(=O)Nc2cccc3ccc(cc23)Oc2cc(ccc2C#N)Cn2cncc2CN1C", "=", 1220),
    ("CN1C(=O)CNCc2cncn2Cc2ccc(C#N)c(c2)Oc2ccc3cccc1c3c2", "=", 6720),
]
